# run description: Stirring double-sink PAMPA permeability
# Format: in vitro ADME
# condition parameters: in-house at NCATS
recorded metric: Permeability

// below: answered compounds
COc1ccc(-c2csc(NC(=O)c3ccccc3NS(=O)(=O)c3ccc(C)cc3)n2)cc1 30.1 ×10⁻⁶ cm/s
Cc1ccc(S(=O)(=O)Nc2cc(Cl)c(Cl)cc2C(=O)Nc2nc(-c3ccccc3)cs2)cc1 < 5.0 ×10⁻⁶ cm/s
COc1ccc(S(=O)(=O)Nc2cnccc2C(=O)Nc2nc(-c3ccccc3)cs2)cc1 674.5 ×10⁻⁶ cm/s
Cc1ccc(-c2csc(NC(=O)c3ccccc3NS(=O)(=O)c3ccc(C)cc3)n2)cc1 35.6 ×10⁻⁶ cm/s
Cc1ccc(S(=O)(=O)Nc2cc(C(F)(F)F)ccc2C(=O)Nc2nc(-c3ccccc3)cs2)cc1 82.2 ×10⁻⁶ cm/s

Below are some compounds; for each one, tell me its Permeability.
1. Cc1ccc(S(=O)(=O)Nc2cnccc2C(=O)Nc2nc(-c3ccccc3)cs2)cc1
2. O=C(Nc1nc(-c2ccccc2)cs1)c1ccncc1NS(=O)(=O)c1ccc(-c2ccccc2)cc1

["724.3 ×10⁻⁶ cm/s", "< 1.0 ×10⁻⁶ cm/s"]

---

# run description: Kinetic aqueous solubility
# Type: physicochemical
# condition parameters: kinetic aqueous solubility in PBS 7.4 buffer from a 10 mM DMSO stock
What Solubility was measured for each of the following?

// below: answered compounds
compound	recorded metric	observed value
O=C(Nc1nc(-c2ccccc2)cs1)c1ccncc1NS(=O)(=O)c1ccc(-c2ccccc2)cc1 [C9]	Solubility	< 1.0 Ug/ml
COc1ccc(-c2csc(NC(=O)c3ccccc3NS(=O)(=O)c3ccc(C)cc3)n2)cc1 [C5]	Solubility	< 1.0 Ug/ml
Cc1ccc(S(=O)(=O)Nc2cc(C(F)(F)F)ccc2C(=O)Nc2nc(-c3ccccc3)cs2)cc1 [C3]	Solubility	< 1.0 Ug/ml
Cc1ccc(S(=O)(=O)Nc2cc(Cl)c(Cl)cc2C(=O)Nc2nc(-c3ccccc3)cs2)cc1 [C4]	Solubility	<1.0 Ug/ml

With those in mind, consider the next compound.
Solubility measured on Cc1ccc(-c2csc(NC(=O)c3ccccc3NS(=O)(=O)c3ccc(C)cc3)n2)cc1 [C6] = < 1.0 Ug/ml
